The variants listed here are annotated with their FACS-Seq fitted mean (log10).
B1: library; a variant is named by its letters at N, in order (parent)
chain: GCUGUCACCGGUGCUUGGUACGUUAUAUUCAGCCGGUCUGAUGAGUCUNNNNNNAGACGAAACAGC

Variants of: B1
ASSAY_NOTES: FACS-Seq fitted mean relative fluorescence mCherry/BFP with ligand (log10 relative fluorescence); HEK293T overexpressing SLC46A1; ligand concentration (+) FACS-Seq: 6 mM; higher = higher reporter protein expression
CONDITION_LABEL: with (6R,S)-folinic acid; ligand present: yes

Here are 8 variants together with their reported answers.
>>> value("GCUGUCACCGGUGCUUGGUACGUUAUAUUCAGCCGGUCUGAUGAGUCUCGAAUAAGACGAAACAGC [CGAAUA]")
0.45
>>> value("GCUGUCACCGGUGCUUGGUACGUUAUAUUCAGCCGGUCUGAUGAGUCUACACCAAGACGAAACAGC [ACACCA]")
0.462
>>> value("GCUGUCACCGGUGCUUGGUACGUUAUAUUCAGCCGGUCUGAUGAGUCUCCGGUUAGACGAAACAGC [CCGGUU]")
-0.22
>>> value("GCUGUCACCGGUGCUUGGUACGUUAUAUUCAGCCGGUCUGAUGAGUCUGAGCAGAGACGAAACAGC [GAGCAG]")
0.688
>>> value("GCUGUCACCGGUGCUUGGUACGUUAUAUUCAGCCGGUCUGAUGAGUCUUUAUACAGACGAAACAGC [UUAUAC]")
0.593
>>> value("GCUGUCACCGGUGCUUGGUACGUUAUAUUCAGCCGGUCUGAUGAGUCUUAUAGGAGACGAAACAGC [UAUAGG]")
0.514
>>> value("GCUGUCACCGGUGCUUGGUACGUUAUAUUCAGCCGGUCUGAUGAGUCUGAGGUUAGACGAAACAGC [GAGGUU]")
-0.382
>>> value("GCUGUCACCGGUGCUUGGUACGUUAUAUUCAGCCGGUCUGAUGAGUCUGGAAUGAGACGAAACAGC [GGAAUG]")
0.668

In: Supply reported FACS-Seq fitted mean (log10) belonging to this variant: GCUGUCACCGGUGCUUGGUACGUUAUAUUCAGCCGGUCUGAUGAGUCUGCAAAAAGACGAAACAGC [GCAAAA]
Out: 0.174

In: Read the entry GCUGUCACCGGUGCUUGGUACGUUAUAUUCAGCCGGUCUGAUGAGUCUCAGUAAAGACGAAACAGC [CAGUAA] and write its reported FACS-Seq fitted mean (log10).
Out: 0.23

In: Answer with the recorded FACS-Seq fitted mean (log10) of GCUGUCACCGGUGCUUGGUACGUUAUAUUCAGCCGGUCUGAUGAGUCUAUGAAUAGACGAAACAGC [AUGAAU] only.
Out: 0.0739

In: Determine from records and report FACS-Seq fitted mean (log10) for GCUGUCACCGGUGCUUGGUACGUUAUAUUCAGCCGGUCUGAUGAGUCUGAAAGGAGACGAAACAGC [GAAAGG]
Out: 0.0807

In: Determine from records and report FACS-Seq fitted mean (log10) for GCUGUCACCGGUGCUUGGUACGUUAUAUUCAGCCGGUCUGAUGAGUCUGGUACAAGACGAAACAGC [GGUACA]
Out: -0.647
